Consider the following molecules; for each one, report its melting point.

Below are worked cases with known answers.
CCOCc1nc2c(N)nc3c(c2n1CCCCS(N)(=O)=O)CCCC3 | 224 to 227 °C
CC(=O)NCC(=O)c1ccccc1 | 69 °C
NC(=O)c1nc(-c2cccc(O)c2)nc2c1[nH]c(=O)n2C1CCCC1 | 360 to 361 °C
CCOC(=O)c1cn(CC)nc1O | 109 to 110 °C
CC(CCc1ccc2c(c1)OCO2)NCC(O)c1cc(C(N)=O)cs1 (stereo unspecified) | 112 to 114 °C

Please go through the list and note melting point for each molecule.
1. COc1ccc2c(c1)C(=O)N(CCN(C)CCN1C(=O)c3ccccc3C(C)(C)C1=O)C(=O)C2(C)C
2. CCCCCCCCCC(=O)c1ccc(O)c(C(=O)Nc2ccc([N+](=O)[O-])cc2)c1

[A]
1: 155 to 156 °C; 2: 142 to 143 °C

Please go through the list and note melting point for each molecule.
1. Fc1ccc2[nH]cc(C3=CCN(CC4CCc5ccc6ncccc6c5O4)CC3)c2c1 (stereo unspecified)
2. c1ccc(COc2ccc(-n3nnnc3C3CC3)cc2)cc1
3. CC(C)(CO)Cc1ccc(-c2ccc(CC(C)(C)CO)cc2)cc1
4. CCCCn1c(=O)c2cc(C(=O)OCC)cn2c2ccccc21
5. CC(=O)NC[C@H]1CN(c2ccc(N3CCC(=C(C#N)C(=O)N4CCCC4)CC3)c(F)c2)C(=O)O1
6. O=C(O)c1c(C=C2CC2)c2ccccc2n1Cc1cccc(C(F)(F)F)c1

[A]
1: 148 °C; 2: 118 °C; 3: 168 to 170 °C; 4: 146 to 148 °C; 5: 125 to 128 °C; 6: 148 to 150 °C

Please go through the list and note melting point for each molecule.
1. O=C(Nc1ccc(O)c(C(=O)O)c1)OCc1ccccc1
2. O=[N+]([O-])c1ccc(CO)c(Nc2nccc(-c3cccnc3)n2)c1
3. COc1cccc(NC(=O)NC2N=C(C)c3ccccc3N(CC(=O)N(C)c3ccccc3)C2=O)c1 (stereo unspecified)
4. NP(N)(=O)NCCCBr

[A]
184 to 186 °C
247 to 250 °C
238 to 239 °C
60 to 65 °C

Please go through the list and note melting point for each molecule.
1. OC12CC3CC(CC(C3)C1=C1C3CC4CC(C3)CC1C4)C2
2. COCCOCCOCCn1c2ccc(C=O)cc2c2cc(C=O)ccc21
3. C[Si](C)(Cc1ccc(N(c2ccccc2)c2ccccc2)cc1)Cc1ccc(N(c2ccccc2)c2ccccc2)cc1

[A]
1. 212 to 213 °C
2. 108 to 109 °C
3. 125 to 127 °C

* * *

OBSERVED_PROPERTY: melting point

CCCc1nn(Cc2ccccc2)c(C(N)=O)c1NC(=O)c1cc(S(=O)(=O)N2CCN(C)CC2)ccc1OCC | 182 to 184 °C
COc1ccc2c(c1)OCC(n1ccnc1)C2=O (stereo not given) | 151 to 155 °C
CCOC(=O)NCCOc1cc(Oc2ccc(C(F)(F)F)cc2Cl)ccc1[N+](=O)[O-] | 70 to 71 °C
CN=C(SCc1ccc(OC)cc1)C1(c2cccnc2)CCCCC1CCO (stereo not given) | 145 to 146 °C
Cc1c2n(c3ccccc13)C(=O)C(CO)(Cc1ncn(C(c3ccccc3)(c3ccccc3)c3ccccc3)c1C)CC2 (stereo not given) | 85 to 88 °C

Please go through the list and note melting point for each compound.
1. COc1ccnc(-c2cccs2)c1
2. Cn1nc(-c2ccccc2C(F)(F)F)nc1-c1ccccc1C(F)(F)F
3. O=C(O)[C@H]1CC(=O)N(c2ccc(OCc3cccc(F)c3)cc2)C1

[A]
1. 43 to 45 °C
2. 108 to 111 °C
3. 157 °C

Please go through the list and note melting point for each compound.
1. CC(=N)Nc1cccc(C(C)O)c1 (stereo not given)
2. COc1ccc(-c2sc3cc(OC)ccc3c2Br)cc1
3. O=Cc1cc(Cl)ccc1Sc1ccccc1F
4. CCCCc1ccc(N2C(=O)CN(Cc3ccccc3)C2=S)cc1

[A]
1: 132 to 135 °C; 2: 83 °C; 3: 85.5 to 88 °C; 4: 149 to 151 °C

Please go through the list and note melting point for each compound.
1. CC(C)Oc1ccc(/C=C(\NC(=O)c2ccc(OCCC(F)(F)F)cc2)C(=O)NCCO)cc1
2. O=C(NC(Cc1ccc(OCc2ccoc2)cc1)C(=O)O)c1cn2nc(-c3ccc(Cl)cc3)ccc2n1 (stereo not given)

[A]
1. 84 to 86 °C
2. 220 °C

Please go through the list and note melting point for each compound.
1. N#CCc1ccc2oc([N+](=O)[O-])c(-c3ccccc3)c2c1
2. COC(=O)c1ccc2[nH]cc(CCCCN3CCN(c4ccccc4OC)CC3)c2c1
3. O=C(Cc1ccn(-c2ccc(F)cc2)c1)N1C(=O)OC[C@@H]1Cc1ccccc1
4. COc1c(C)cnc(CS(=O)c2nc3cc(C(F)(F)F)ccc3[nH]2)c1C (stereo not given)
5. CCOC(=O)c1cnc(N(CC)Cc2ccc3nc(C)[nH]c(=O)c3c2)s1

[A]
1: 166 to 168 °C; 2: 195 to 196 °C; 3: 106 to 108 °C; 4: 163 °C; 5: 188 to 192 °C

[Q] Report melting point for O=C(O)Cc1cc(C(=O)C=Cc2ccccc2Cl)ccc1O please.
[A] 235 °C

* * *

Residues, ends and D or L forms follow the SMILES beside them. *: point of attachment. PhAc = O=C(Cc1ccccc1)*; NHNH2 = NN*
OBSERVED_PROPERTY: melting point

COc1c(C#N)c2c(c3c1OC(C)(C)C3)C(c1ccccc1)=NC(C)(C)C2 | 166 to 168 °C
CC(=O)Nc1cc(C(=O)c2ccccc2)ccc1[N+](=O)[O-] | 97.8 °C
CCS(=O)(=O)Nc1cc(-n2nc3n(c2=O)CCCS3)c(F)cc1C#N | 193 to 195 °C

Please go through the list and note melting point for each compound.
1. O=C(O)[C@@H]1C[C@@H](O)CN1C(=O)OCc1ccc([N+](=O)[O-])cc1
2. O=C(O)c1cc2ccccc2n1S(=O)(=O)c1cccc(Cl)c1
3. Cc1c2n(c(=O)c3c(O)cccc13)CCCS2=O (centres undefined)
4. Clc1ccc(Cn2cc(CN3CCC(c4ccccc4)(c4ccccc4)CC3)nn2)cc1
5. COC(=O)c1cccc2nc(SCCN3CCN(CCNC(=O)Nc4c(C(C)C)cccc4C(C)C)CC3)oc12
6. CC(NC(=O)C1CCCN1C(=O)Cc1ccccc1)C(=O)NN (stereo not drawn) (PhAc-Pro-Ala-NHNH2; configuration not given here)
7. Nc1nn(Cc2ccccc2)c2nc(N3CCOCC3)cc(-c3ccccc3)c12

[A]
1: 136 to 137 °C; 2: 216 to 217 °C; 3: 169 to 170 °C; 4: 148 °C; 5: 186 to 188 °C; 6: 142 to 143 °C; 7: 147 to 150 °C

Please go through the list and note melting point for each compound.
1. COC1Cn2ccc(=O)c(OCc3ccccc3)c2C(c2ccccc2)O1 (centres undefined)
2. CC(O)c1cc(Br)c(N)c(CN(C)C)c1 (centres undefined)
3. O=C(Cc1c2c(nn1-c1ccccc1)c(=O)[nH]c1ccccc12)N1CCN(Cc2ccccc2)CC1
4. COc1ccc(Cn2cc[nH]c2=O)cc1

[A]
202 to 204 °C
69 to 72 °C
283 to 285 °C
132 °C

Please go through the list and note melting point for each compound.
1. COc1ccc(C(Nc2ccccc2)C(=O)OC(C)(C)C)cc1 (racemic)
2. NC(=O)c1cccc(OC2C(C(=O)O)=CC=CN2Cc2ccccc2Cl)c1 (centres undefined)
3. CC(=O)c1ccc2ccccc2c1OCCCC(=O)O
4. NCc1cccc(CNC(=O)C2Cc3ccccc3N2S(=O)(=O)c2ccc(-c3cccc(C(F)(F)F)c3)cc2)c1 (centres undefined)
5. CC1(C)Nc2ccccc2-c2c(N)cnn21

[A]
1: 99 °C; 2: 220 to 224 °C; 3: 104 °C; 4: 116 °C; 5: 181 to 183 °C

* * *

OBSERVED_PROPERTY: melting point

Below are worked cases with known answers.
CCC(=O)Oc1ccc(C(=O)CC)cc1F | 104 to 106 °C
Nc1ccc2c(c1)CCC1CC(=O)NN=C21 (stereo unspecified) | 290 to 291 °C

Please go through the list and note melting point for each compound.
1. C=CC(=O)N(C)CCCCCCCCCCCOc1ccc(C(=O)O)c(C(=O)O)c1
2. COC(=O)NC1CCc2ccc(Cl)cc2C1=O (stereo unspecified)

[A]
["95 °C", "126 to 127 °C"]

Please go through the list and note melting point for each compound.
1. Cc1noc(NS(=O)(=O)c2ccc(Cl)c(Cl)c2Cl)c1Br
2. CC(C)Oc1cccc(CC(=O)N2CCC(CCN3CCC(C(=O)c4nc5ccccc5n4Cc4ccc(F)cc4)CC3)(c3ccc4c(c3)OCO4)C2)c1 (stereo unspecified)

[A]
110 to 113 °C
73 to 76 °C

Cited source: a melting point compilation (Tetko et al.; mined from patent text by program, amines drawn as free bases though some values may be those of a salt)
